Tested on: HaCat
Assay: Cytotoxic Profiling of Annotated Libraries Using Quantitative High-Throughput Screening (AID 1296008); note: % is set by controls: 0 for no effect and ±100 for the full control effect
Settings: Five cell lines viability, CellTiter-Glo ATP luminescence, 48-72 h; stronger effect = lower value
Records with an inconclusive call do not appear.
endpointName: max response (%)
Number in %, nothing else.

Per the record, COc1ccc(OC(=O)N(CC(=O)O)Cc2ccc(OCCc3nc(-c4ccccc4)oc3C)cc2)cc1 has max response of -6.17

Per the records, this molecule ( OC(CCCN1CCCCC1)(c1ccccc1)c1ccccc1 ) has max response equal to -16

Looking up CNC[C@H](O)[C@@H](O)[C@H](O)[C@H](O)CO , I found its max response recorded as -3.04

max response reported for this molecule C1=CC2C3C=CC(C3)C2C1 (stereo not drawn) : -9.73

Notebook: CC(CCc1ccc2c(c1)OCO2)NN (stereo not drawn) , max response read as 2.43

Record Clc1ccc2c(c1)N=C(N1CCNCC1)c1ccccc1N2 . Reported max response: 2.45

Short answer for COc1c(C)c2c(c(O)c1C/C=C(\C)CCC(=O)OCCN1CCOCC1)C(=O)OC2 : max response was -40.9

Per the records, this molecule ( CCOC(=O)c1ccc(O)c(O)c1 ) has max response equal to -0.432
